Reported values of Reduced relative colony forming efficiency, A549 (% inhibition of colony forming ability) for individual entries
- System: A549 lung cell carcinoma
- assay-explanation: Relative colony forming efficiency (Example 17, Table 13)
- Format: cell-based, human
- measurement-setup: averages of 2-8 determinations
Oligonucleotides are written 5' to 3', each unit as a sugar letter and its base; * is a phosphorothioate linkage, no mark a phosphodiester; rarer units and linkages stand in square brackets, end groups in braces. Plain capitals give the bases only. d = 2'-deoxy (DNA)
quantity-kind: Reduced relative colony forming efficiency, A549 (% inhibition of colony forming ability)

In [3]: df
Out[3]:
                            polymer_sequence  recorded_result
 0  AACTTCTTGGCTAAATCGCT (antisense dA*dA*dC*dT*dT*dC*dT*dT*dG*dG*dC*dT*dA*dA*dA*dT*dC*dG*dC*dT) [AS-II-634-20]           57.76%
 1  AGCCTCTGCCTTCTTATACA (antisense dA*dG*dC*dC*dT*dC*dT*dG*dC*dC*dT*dT*dC*dT*dT*dA*dT*dA*dC*dA) [AS-II-472-20]           96.99%
 2  GCAGCGAAGCAGAGCGAGCA (antisense dG*dC*dA*dG*dC*dG*dA*dA*dG*dC*dA*dG*dA*dG*dC*dG*dA*dG*dC*dA) [AS-II-166-20]            81.1%
 3  CCTCCTCGGCGGTCCAAAAG (antisense dC*dC*dT*dC*dC*dT*dC*dG*dG*dC*dG*dG*dT*dC*dC*dA*dA*dA*dA*dG) [AS-II-494-20]           33.85%
 4  TTGTGTACCAGGTGTTTGAA (antisense dT*dT*dG*dT*dG*dT*dA*dC*dC*dA*dG*dG*dT*dG*dT*dT*dT*dG*dA*dA) [AS-II-1023-20]           34.52%
 5  AGGACTGGTTGTGAGGTAGC (antisense dA*dG*dG*dA*dC*dT*dG*dG*dT*dT*dG*dT*dG*dA*dG*dG*dT*dA*dG*dC) [AS-II-1499-20]            87.8%
 6  CAGAATATCGACGCAAAAGA (dC*dA*dG*dA*dA*dT*dA*dT*dC*dG*dA*dC*dG*dC*dA*dA*dA*dA*dG*dA) [AS-II-909-20]           78.68%
 7  AAAACCTTGCTAAAACCCAG (antisense dA*dA*dA*dA*dC*dC*dT*dT*dG*dC*dT*dA*dA*dA*dA*dC*dC*dC*dA*dG) [AS-II-1197-20]           89.15%
 8  GCATCCAAGGTAAAAGAATT (antisense dG*dC*dA*dT*dC*dC*dA*dA*dG*dG*dT*dA*dA*dA*dA*dG*dA*dA*dT*dT) [AS-II-1335-20]           78.59%
 9  GACATCACTCCCATCCTCTG (antisense dG*dA*dC*dA*dT*dC*dA*dC*dT*dC*dC*dC*dA*dT*dC*dC*dT*dC*dT*dG) [AS-II-1302-20]           93.17%
10  TTAGAAGTCAGCATCCAAGG (antisense dT*dT*dA*dG*dA*dA*dG*dT*dC*dA*dG*dC*dA*dT*dC*dC*dA*dA*dG*dG) [AS-II-1345-20]            73.1%
11  GCCACAGGATAAAAACACAA (antisense dG*dC*dC*dA*dC*dA*dG*dG*dA*dT*dA*dA*dA*dA*dA*dC*dA*dC*dA*dA) [AS-II-2009-20]           93.32%

###

- System: PC-3 prostrate cell adenocarcinoma
- assay-explanation: Relative colony forming efficiency (Example 17, Table 13)
- Format: cell-based, human
- measurement-setup: averages of 2-8 determinations
Oligonucleotides are written 5' to 3', each unit as a sugar letter and its base; * is a phosphorothioate linkage, no mark a phosphodiester; rarer units and linkages stand in square brackets, end groups in braces. Plain capitals give the bases only. d = 2'-deoxy (DNA)
quantity-kind: Reduced relative colony forming efficiency, PC-3 (% inhibition of colony forming ability) (%)

                           polymer_sequence                         target_desc  unit_of_measure  recorded_result
0  GGCGACCCCTCACTCCAGCA (antisense dG*dG*dC*dG*dA*dC*dC*dC*dC*dT*dC*dA*dC*dT*dC*dC*dA*dG*dC*dA) [AS-II-114-20]  PC-3 prostrate cell adenocarcinoma                %            92.66
1  TGGCACCAACTGACTAATAT (antisense dT*dG*dG*dC*dA*dC*dC*dA*dA*dC*dT*dG*dA*dC*dT*dA*dA*dT*dA*dT) [AS-II-1976-20]  PC-3 prostrate cell adenocarcinoma                %            88.16
2  GGGAGAGCATAGTGGAGGCG (antisense dG*dG*dG*dA*dG*dA*dG*dC*dA*dT*dA*dG*dT*dG*dG*dA*dG*dG*dC*dG) [AS-II-185-20]  PC-3 prostrate cell adenocarcinoma                %             4.37
3  GCAAAGAAAGCCAGAACATG (antisense dG*dC*dA*dA*dA*dG*dA*dA*dA*dG*dC*dC*dA*dG*dA*dA*dC*dA*dT*dG) [AS-II-579-20]  PC-3 prostrate cell adenocarcinoma                %            88.16
4  GCTATTATCGCCGCCGTGAG (antisense dG*dC*dT*dA*dT*dT*dA*dT*dC*dG*dC*dC*dG*dC*dC*dG*dT*dG*dA*dG) [AS-II-1773-20]  PC-3 prostrate cell adenocarcinoma                %            70.04
5  GACATCACTCCCATCCTCTG (antisense dG*dA*dC*dA*dT*dC*dA*dC*dT*dC*dC*dC*dA*dT*dC*dC*dT*dC*dT*dG) [AS-II-1302-20]  PC-3 prostrate cell adenocarcinoma                %            79.01

###

- Test system: HepG2 hepatocellular carcinoma
- assay-explanation: Relative colony forming efficiency (Example 17, Table 13)
- Format: cell-based, human
- measurement-setup: averages of 2-8 determinations
Oligonucleotides are written 5' to 3', each unit as a sugar letter and its base; * is a phosphorothioate linkage, no mark a phosphodiester; rarer units and linkages stand in square brackets, end groups in braces. Plain capitals give the bases only. d = 2'-deoxy (DNA)
quantity-kind: Reduced relative colony forming efficiency, HepG2 (% inhibition of colony forming ability) (%)

>>> df
                                   substance  unit_of_measure  recorded_result
 0  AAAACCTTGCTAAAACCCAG (antisense dA*dA*dA*dA*dC*dC*dT*dT*dG*dC*dT*dA*dA*dA*dA*dC*dC*dC*dA*dG) [AS-II-1197-20]                %            76.32
 1  TCAGGCAAGCAAAATCACAG (antisense dT*dC*dA*dG*dG*dC*dA*dA*dG*dC*dA*dA*dA*dA*dT*dC*dA*dC*dA*dG) [AS-II-1001-20]                %            90.36
 2  GCACATCTTCAGTTCATTTA (antisense dG*dC*dA*dC*dA*dT*dC*dT*dT*dC*dA*dG*dT*dT*dC*dA*dT*dT*dT*dA) [AS-II-1362-20]                %            80.41
 3  G*CC*TCCG*ACC*CTTC*CC*ATT*G (antisense dG*dCdC*dTdCdCdG*dAdCdC*dCdTdTdC*dCdC*dAdTdT*dG) [AS-II-13-20]                %            24.11
 4  G*CG*AAG*CAG*AGC*GAG*CAGC*C (antisense dG*dCdG*dAdAdG*dCdAdG*dAdGdC*dGdAdG*dCdAdGdC*dC) [AS-II-163-20]                %            18.64
 5  GCACGGGCGACC (antisense dG*dC*dA*dC*dG*dG*dG*dC*dG*dA*dC*dC) [AS-II-127-12]                %            71.75
 6  GAGAAATAAAATGAAACGGC (antisense dG*dA*dG*dA*dA*dA*dT*dA*dA*dA*dA*dT*dG*dA*dA*dA*dC*dG*dG*dC) [AS-II-2164-20]                %            93.07
 7  AACTTCTTGGCTAAATCGCT (antisense dA*dA*dC*dT*dT*dC*dT*dT*dG*dG*dC*dT*dA*dA*dA*dT*dC*dG*dC*dT) [AS-II-634-20]                %            95.78
 8  GCGAGCGGGACACGGAGGGA (antisense dG*dC*dG*dA*dG*dC*dG*dG*dG*dA*dC*dA*dC*dG*dG*dA*dG*dG*dG*dA) [AS-II-201-20]                %            59.32
 9  GCAAAGGCTACAACACGTTC (antisense dG*dC*dA*dA*dA*dG*dG*dC*dT*dA*dC*dA*dA*dC*dA*dC*dG*dT*dT*dC) [AS-II-861-20]                %            96.08
10  ATCGCCGCCGTG (antisense dA*dT*dC*dG*dC*dC*dG*dC*dC*dG*dT*dG) [AS-II-1775-12]                %            43.97
11  TTCTGGCAAAAGGTGATACT (antisense dT*dT*dC*dT*dG*dG*dC*dA*dA*dA*dA*dG*dG*dT*dG*dA*dT*dA*dC*dT) [AS-II-1538-20]                %            96.84

Values compiled from patent US20080311126A1.
